# system-name: Recombinant human KIF18A (1-467 His-tagged) (Homo sapiens, UniProt Q8NI77)
# Construct: Recombinant human KIF18A (1-467 His-tagged) protein; His
# Sequence (Q8NI77 1-467): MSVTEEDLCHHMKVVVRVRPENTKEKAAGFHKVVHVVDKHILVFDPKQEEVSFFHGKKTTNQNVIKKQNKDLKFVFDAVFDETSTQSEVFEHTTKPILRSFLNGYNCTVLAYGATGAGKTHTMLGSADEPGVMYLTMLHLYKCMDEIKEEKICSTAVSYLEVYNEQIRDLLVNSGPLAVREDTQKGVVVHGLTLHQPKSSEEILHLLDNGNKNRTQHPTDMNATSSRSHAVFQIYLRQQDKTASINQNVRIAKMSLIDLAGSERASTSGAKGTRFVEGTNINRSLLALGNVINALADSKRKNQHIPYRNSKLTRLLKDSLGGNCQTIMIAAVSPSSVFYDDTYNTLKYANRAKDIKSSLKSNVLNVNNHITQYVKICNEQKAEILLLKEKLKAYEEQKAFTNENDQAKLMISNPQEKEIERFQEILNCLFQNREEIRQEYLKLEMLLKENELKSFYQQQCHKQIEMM
# Sequence (P02550 whole entry partner): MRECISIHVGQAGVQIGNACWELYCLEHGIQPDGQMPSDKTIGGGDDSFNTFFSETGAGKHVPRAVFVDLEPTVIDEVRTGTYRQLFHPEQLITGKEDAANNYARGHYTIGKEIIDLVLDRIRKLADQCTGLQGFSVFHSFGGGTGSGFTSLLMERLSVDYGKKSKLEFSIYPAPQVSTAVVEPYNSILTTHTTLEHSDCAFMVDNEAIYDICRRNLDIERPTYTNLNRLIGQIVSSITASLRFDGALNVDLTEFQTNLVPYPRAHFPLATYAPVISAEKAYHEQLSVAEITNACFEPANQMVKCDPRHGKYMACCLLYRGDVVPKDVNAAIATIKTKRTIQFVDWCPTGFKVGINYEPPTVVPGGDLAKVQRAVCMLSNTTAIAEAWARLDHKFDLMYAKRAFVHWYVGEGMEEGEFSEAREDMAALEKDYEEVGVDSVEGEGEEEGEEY
# Sequence (P02554 whole entry partner): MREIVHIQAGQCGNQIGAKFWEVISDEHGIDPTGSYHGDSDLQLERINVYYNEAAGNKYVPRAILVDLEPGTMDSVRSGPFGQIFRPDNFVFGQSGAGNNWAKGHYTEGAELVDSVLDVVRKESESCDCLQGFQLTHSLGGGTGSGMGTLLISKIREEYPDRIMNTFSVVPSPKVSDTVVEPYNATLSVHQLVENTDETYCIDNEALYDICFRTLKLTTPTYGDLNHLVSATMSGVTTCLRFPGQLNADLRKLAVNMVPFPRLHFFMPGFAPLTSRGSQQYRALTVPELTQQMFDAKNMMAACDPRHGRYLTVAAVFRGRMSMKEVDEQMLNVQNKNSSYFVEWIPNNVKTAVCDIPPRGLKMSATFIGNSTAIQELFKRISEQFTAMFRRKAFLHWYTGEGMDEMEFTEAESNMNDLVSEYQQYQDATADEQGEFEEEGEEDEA
# test-method-notes: KIF18A Enzyme Assay: microtubule-stimulated ATPase activity (ADP-Glo)
# measurement-parameters: 30 nM KIF18A, 30 μg/mL pig microtubules, ATP 75 μM (Km), ADP-Glo luminescence
pIC50: −log10 of the molar value.
parameter-measured: pIC50

// known answers, use as guide
[
  {
    "compound": "Cc1cc(NC(=O)c2ccc(NS(=O)(=O)CCO)cc2N2CCC3(CC2)CC3)nc(OCC(C)(C)O)c1",
    "pIC50": 7.23
  },
  {
    "compound": "CC(O)CCOc1cccc(NC(=O)c2ccc(NS(=O)(=O)CCO)cc2N2CCC3(CC2)CC3)n1 (stereo not drawn)",
    "pIC50": 7.51
  },
  {
    "compound": "O=C(Nc1cccc(OCCC(F)F)n1)c1ccc(NS(=O)(=O)CCO)cc1N1CCC2(CC1)CC2",
    "pIC50": 7.29
  },
  {
    "compound": "Cc1cc(NC(=O)c2ccc(NS(=O)(=O)[C@@H](C)CO)cc2N2CCC3(CC2)CC3)nc(N2CC(F)(F)C2)c1 (single isomer, unassigned)",
    "pIC50": 7.24
  }
]

P: Cc1cc(NC(=O)c2ccc(NS(=O)(=O)C(C)(C)C)cc2N2CCC3(CC2)CC3)nc(N2CCC(F)(F)CC2)c1
Q: C[C@@H]1CN(c2cccc(NC(=O)c3ccc(NS(=O)(=O)[C@H](C)CO)cc3N3CCC4(CC3)CC4)n2)CCO1 (single isomer, unassigned)
Incoming: Determine, for P and Q , which has the greater value of pIC50. API: response body contains the label of the selected item.
Outgoing: Q

====

# system-name: Recombinant human KIF18A (1-467 His-tagged) (Homo sapiens)
# Construct: Recombinant human KIF18A (1-467 His-tagged) protein; His
# test-method-notes: KIF18A Enzyme Assay: microtubule-stimulated ATPase activity (ADP-Glo)
# Format: biochemical
# measurement-parameters: 30 nM KIF18A, 30 μg/mL pig microtubules, ATP 75 μM (Km), ADP-Glo luminescence
pIC50: −log10 of the molar value.
parameter-measured: pIC50

Guide cases for pIC50, answers given:
[
  {
    "compound": "C[C@H]1CN(c2cccc(NC(=O)c3ccc(NS(=O)(=O)CCO)cc3N3CCC4(CC3)CC4)n2)CCO1",
    "parameter-measured": "pIC50",
    "recorded-measurement": 7.34
  },
  {
    "compound": "Cc1cc(NC(=O)c2ccc(S(=O)(=O)NC3(C)COC3)cc2N2CCC3(CC2)CC3)nc(C(C)(C)O)c1",
    "parameter-measured": "pIC50",
    "recorded-measurement": 7.05
  },
  {
    "compound": "CC(Oc1cccc(NC(=O)c2ccc(NS(=O)(=O)CCO)cc2N2CCC3(CC2)CC3)n1)C1CC1 (stereo not shown)",
    "parameter-measured": "pIC50",
    "recorded-measurement": 7.29
  },
  {
    "compound": "CC1(S(=O)(=O)Nc2ccc(C(=O)Nc3cccc(N4CCCC(F)(F)C4)n3)c(N3CCC4(CC3)CC4)c2)CC1",
    "parameter-measured": "pIC50",
    "recorded-measurement": 7.42
  },
  {
    "compound": "C[C@@H]1CN(c2cc(C3CC3)cc(NC(=O)c3ccc(NS(=O)(=O)CCO)cc3N3CCC4(CC3)CC4)n2)CCO1",
    "parameter-measured": "pIC50",
    "recorded-measurement": 7.06
  }
]

1: C[C@@H]1CN(c2cccc(NC(=O)c3ccc(NS(=O)(=O)C4(F)CC4)cc3N3CCC4(CC3)CC4)n2)CCO1
2: CC1(S(=O)(=O)Nc2ccc(C(=O)Nc3cccc(N4CCC[C@@H](O)C4)n3)c(N3CCC4(CC3)CC4)c2)CC1
3: C[C@@H]1CN(c2cccc(NC(=O)c3ccc(S(=O)(=O)N4CC(C)(C)C4)cc3N3CCC4(CC3)CC4)n2)CCO1
Incoming: Arrange by pIC50, high to low. Labels, ranked as asked.
Outgoing: 2, 1, 3
(2: 7.34, 1: 7.05, 3: 6.25)

1: CC(C)(C)NS(=O)(=O)c1cccc(NC(=O)c2ccc(S(C)(=O)=O)cc2N2CCC3(CC2)CC3)n1
2: C[C@@H]1CN(c2cccc(NC(=O)c3ccc(S(C)(=N)=O)cc3N3CCC4(CC3)CC4)n2)CCO1 (single isomer, unassigned) [Example 13-3]
Incoming: Of 1 and 2 , which shows the smaller pIC50 value? Give the label under which the chosen entry appears.
Outgoing: 2
(2: 6.38, 1: 7.12)

I: C[C@@H](CO)S(=O)(=O)Nc1ccc(C(=O)Nc2cccc(N3CCC(F)(F)CC3)n2)c(N2CCC3(CC2)CC3)c1 (single isomer, unassigned)
II: Cc1cc(NC(=O)c2ccc(NS(=O)(=O)CC3CC3)cc2N2CCC3(CC2)CC3)nc(N2CCC(F)(F)CC2)c1
Incoming: Compare I and II and name the one whose reported pIC50 is smaller. Please indicate the selected item by its label.
Outgoing: II

====

# system-name: Recombinant human KIF18A (1-467 His-tagged) (Homo sapiens)
# Construct: Recombinant human KIF18A (1-467 His-tagged) protein; His
# test-method-notes: KIF18A Enzyme Assay: microtubule-stimulated ATPase activity (ADP-Glo)
# measurement-parameters: 30 nM KIF18A, 30 μg/mL pig microtubules, ATP 75 μM (Km), ADP-Glo luminescence
# Source text: KIF18A Enzyme Assay: Microtubule-stimulated ATPase activity assay is used to measure KIF18A enzyme activity after treatment with compound. Compounds were 2-fold serially diluted in DMSO (Sigma Inc) over 22-point concentration range. […] The assay measures ADP formed from the ATPase reaction. […] Read luminescence using EnVision microplate reader with ultra-luminescence module (Perkin Elmer Inc). […]
parameter-measured: IC50 (nM)

Here are 5 compounds together with their reported answers.
[
  {
    "compound": "Cc1cc(NC(=O)c2ccc(NS(=O)(=O)[C@@H](C)CO)cc2N2CCC3(CC2)CC3)nc(N2CCO[C@H](C)C2)c1 (single isomer, unassigned)",
    "IC50 / nM": 39
  },
  {
    "compound": "C[C@@H]1CN(c2cccc(NC(=O)c3ccc(S(=O)(=O)NC(C)(C)C)cc3N3CCC4(CC3)CC4)n2)CCO1",
    "IC50 / nM": 51
  },
  {
    "compound": "C[C@@H]1CN(c2nc(NC(=O)c3ccc(NS(=O)(=O)CCO)cc3N3CCC4(CC3)CC4)ccc2F)CCO1",
    "IC50 / nM": 33
  },
  {
    "compound": "Cc1cc(NC(=O)c2ccc(S(=O)(=O)NC3(C)COC3)cc2N2CCC3(CC2)CC3)nc(N2CCO[C@H](C)C2)c1",
    "IC50 / nM": 119
  },
  {
    "compound": "CC1(O)CCN(c2cccc(NC(=O)c3ccc(NS(=O)(=O)C4(C)CC4)cc3N3CCC4(CC3)CC4)n2)CC1",
    "IC50 / nM": 243
  }
]

P: C[C@@H]1CN(c2cccc(NC(=O)c3ccc(S(C)(=O)=O)cc3N3CCC4(CC3)CC4)n2)CCO1
Q: Cc1cc(NC(=O)c2ccc(NS(=O)(=O)C3CC3)cc2N2CCC3(CC2)CC3)nc(N2CC(F)(F)C2)c1
R: Cc1cc(NC(=O)c2ccc(NS(=O)(=O)[C@@H](C)CO)cc2N2CCC3(CC2)CC3)nc(N2CCC(F)(F)CC2)c1 (single isomer, unassigned)
S: CC1(O)CCN(c2cccc(NC(=O)c3ccc(NS(=O)(=O)C4(C)CC4)cc3N3CCC4(CC3)CC4)n2)C1 (stereo not shown)
T: C[C@@H]1CN(c2cccc(NC(=O)c3ccc([S@](=N)(=O)C(C)(C)C)cc3N3CCC4(CC3)CC4)n2)CCO1 (single isomer, unassigned)
Incoming: Rank order required: IC50, descending. Show the ranking through the labels, in the order asked for.
Outgoing: S, T, P, Q, R

====

# system-name: Recombinant human KIF18A (1-467 His-tagged) (Homo sapiens)
# Construct: Recombinant human KIF18A (1-467 His-tagged) protein; His
# test-method-notes: KIF18A Enzyme Assay: microtubule-stimulated ATPase activity (ADP-Glo)
# measurement-parameters: 30 nM KIF18A, 30 μg/mL pig microtubules, ATP 75 μM (Km), ADP-Glo luminescence
parameter-measured: IC50 (nM)

Completed entries (count: 9):
[
  {
    "compound": "CC1(S(=O)(=O)Nc2ccc(C(=O)Nc3cccc(N4CCC[C@](C)(O)C4)n3)c(N3CCC4(CC3)CC4)c2)CC1",
    "IC50 [nM]": 175
  },
  {
    "compound": "CN1CC(COc2cccc(NC(=O)c3ccc(NS(=O)(=O)CCO)cc3N3CCC4(CC3)CC4)n2)C1",
    "IC50 [nM]": 63
  },
  {
    "compound": "C[C@H](CO)S(=O)(=O)Nc1ccc(C(=O)Nc2cccc(N3CCO[C@@H](C)C3)n2)c(N2CCC3(CC2)CC3)c1 (single isomer, unassigned)",
    "IC50 [nM]": 24
  },
  {
    "compound": "Cc1cc(NC(=O)c2ccc(NS(=O)(=O)[C@H](C)CO)cc2N2CCC3(CC2)CC3)nc(N2CCOCC2)c1 (single isomer, unassigned)",
    "IC50 [nM]": 18
  },
  {
    "compound": "CC1(S(=O)(=O)Nc2ccc(C(=O)Nc3cccc(N4CCCC(C#N)C4)n3)c(N3CCC4(CC3)CC4)c2)CC1 (stereo not shown)",
    "IC50 [nM]": 86
  },
  {
    "compound": "C[C@@H]1CN(c2cccc(NC(=O)c3ccc(NS(C)(=O)=O)cc3N3CCC4(CC3)CC4)n2)CCO1",
    "IC50 [nM]": 39
  },
  {
    "compound": "Cc1cc(NC(=O)c2ccc(S(=N)(=O)C3CC3)cc2N2CCC3(CC2)CC3)nc(N2CCO[C@H](C)C2)c1 (stereo in doubt) [Example 29-2]",
    "IC50 [nM]": 59
  },
  {
    "compound": "Cc1cc(NC(=O)c2ccc(NS(=O)(=O)C3(C)CC3)cc2N2CCC3(CC2)CC3)nc(N2CCC(F)(F)CC2)c1",
    "IC50 [nM]": 95
  },
  {
    "compound": "CC1(S(=O)(=O)Nc2ccc(C(=O)Nc3cccc(N4CCC(C#N)CC4)n3)c(N3CCC4(CC3)CC4)c2)CC1",
    "IC50 [nM]": 91
  }
]

I: C[C@@H]1CN(c2cccc(NC(=O)c3ccc(N4CCCS4(=O)=O)cc3N3CCC4(CC3)CC4)n2)CCO1
II: CC1(COc2cccc(NC(=O)c3ccc(NS(=O)(=O)CCO)cc3N3CCC4(CC3)CC4)n2)COC1
III: Cc1cc(NC(=O)c2ccc(S(=N)(=O)C3CC3)cc2N2CCC3(CC2)CC3)nc(N2CCO[C@H](C)C2)c1 (single isomer, unassigned) [Example 29-1]
IV: CC1(F)CCN(c2cccc(NC(=O)c3ccc(NS(=O)(=O)C4(C)CC4)cc3N3CCC4(CC3)CC4)n2)CC1
Incoming: Hello, I need these entries ordered by IC50, highest reading first. Thanks! Write the labels in rank order as requested.
Outgoing: IV, III, I, II
